# method: in vitro
# assayConditions: human
parameter: CC50

CC50 for CCC(CC)COC(=O)[C@H](C)N[P@](=O)(OC[C@H]1O[C@@](C#N)(c2ccc3c(N)ncnn23)[C@H](O)[C@@H]1O)Oc1ccccc1 [Remdesivir, remdesivir, reference compound] ?
> 20 µM
